Collected PBM binding z-score values appear next to each entry.
# Tested on: PPARg:RXRa (NR concentration 180 nM, RXRa partner concentration 90 nM)
# ASSAY PROTOCOL: PBM binding z-score (relative to random genomic background probes); higher = stronger binding; sequences stand for … in GC…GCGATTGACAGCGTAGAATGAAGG
// print number alone

Solved cases below.
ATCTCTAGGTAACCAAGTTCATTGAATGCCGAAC: 1.04
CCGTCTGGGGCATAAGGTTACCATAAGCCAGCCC: 1.29
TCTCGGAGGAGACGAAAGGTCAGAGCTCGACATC: 3.2
CCAGACAGGTGAGAAGGTATCTCAGCCTCGATTA: 0.278
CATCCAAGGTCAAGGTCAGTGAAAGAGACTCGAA: 7.17

Per the record, TCTCGGAGGACACGAAGGCCAGAGCTTTCCAGAG has PBM binding z-score of -0.048

Per the record, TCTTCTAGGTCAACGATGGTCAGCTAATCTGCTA has PBM binding z-score of 6.09

Per the record, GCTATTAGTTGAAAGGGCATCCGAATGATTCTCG has PBM binding z-score of 2.35

Per the record, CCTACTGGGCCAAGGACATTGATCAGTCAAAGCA has PBM binding z-score of 0.757

Per the record, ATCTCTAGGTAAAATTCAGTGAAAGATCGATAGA has PBM binding z-score of 0.606

Per the record, AGAATGAGGTTATTAGGATCAGGGAATTGCGGTC has PBM binding z-score of 2.39

Per the record, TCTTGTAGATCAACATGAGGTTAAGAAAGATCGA has PBM binding z-score of 0.344

Per the record, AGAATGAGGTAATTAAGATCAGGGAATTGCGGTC has PBM binding z-score of 0.544

Per the record, CCGACTGGGGCAAGGTTAGCATAACGCACAGCCA has PBM binding z-score of 2.6

Per the record, AGAAAGAGGTTAAGATCAGGGAAACAGAATACAT has PBM binding z-score of 2.06
